# credit: patent US20120277143A1

Task for the reader: assign each of the following binders its reported kon.
Biological target: T1, human IL4 (human, UniProt P05112 25-153, biotinylated in the SPR and competition assays (sites not given))
T1 construct: Peprotech #200-04, mature protein produced in E. coli; also called hIL4; Interleukin 4
T1 sequence: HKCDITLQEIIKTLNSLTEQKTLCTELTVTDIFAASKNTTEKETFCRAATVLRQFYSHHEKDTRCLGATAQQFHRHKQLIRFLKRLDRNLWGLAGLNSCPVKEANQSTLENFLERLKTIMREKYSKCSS
Experiment: SPR ProteOn, biotin-IL4 on neutravidin chip, 1:1 fit
Write the number in M⁻¹ s⁻¹ without appending the unit.

Give reported kon value for C06_50E5 (designed binder, ankyrin repeat protein; His-tagged, IMAC-purified) DLGKKLLEAARAGQDDEVRILMANGADANATDDWGDTLLHLAATDGHLEIVEVLLKNGADVNAIDAMGMTPLHLAAVYGYLEIVEVLLKNGADVNAMDFSGFTPLHLAAFSGHLEIVEVLLKYGADVNAQDKFGKTAFDISIDNGNEDLAEILQKLN 725000

Give reported kon value for C06_13A10 (designed binder, ankyrin repeat protein; His-tagged, IMAC-purified) DLGKKLLEAARAGQDDEVRILMANGADVNVSDRIGNTPLHLAAVYVHLEIVEVLLKNGADVNALDDDGLTPLHLAAADGHLEIVEVLLKHGADVNATDSHVWTPLHLAAFFGHLEIVEVLLKYGADVNAQDKFGKTAFDISIDNGNEDLAEILQKLN 2.52e+06

Give reported kon value for C06_42A11 (designed binder, ankyrin repeat protein; His-tagged, IMAC-purified) DLGKKLLEAASVGQDDEVHILMANGADVNATDAWGLTPLHLAALLGHLEIVEVLLKHGADVNAHDETGFTPLHLAAVEGHLEIVEVLLKYGADVNASDILGRTPLHLAANFGHLEIVEVLLKHGADVNAQDKFGKTAFDISIDNGNEDLAEILQKLN 727000

Give reported kon value for C06_44C12 (designed binder, ankyrin repeat protein; His-tagged, IMAC-purified) DLGKKLLEAASAGQDDEVHILMANGADVNALDDSGYTPLHLAAEDGHLEIVEVLLKHGADVNAADRMGDTPLHLAAFVGHLEIVEVLLKYGADVNAVDLAGVTPLHVAAFYGHLEIVEVLLKYGADVNAQDKFGKTAFDISIDNGNEDLAEILQKLN 864000

Give reported kon value for C06_28E5 (designed binder, ankyrin repeat protein; His-tagged, IMAC-purified; also called benchmark AR protein) DLGKKLLEAARAGQDDEVRILMANGADVNAADDSGITPLHLAAEDGHLEIVEVLLKYGADVNAQDNLGDTPLHLAAWTGHLEIVEVLLKNGADVNAYDISGITPLHLAAFYGHLEIVEVLLKHGADVNAQDKFGKTAFDISIDNGNEDLAEILQKLN 922000
